Just for reference, ChEMBL document CHEMBL4513216 is where these values come from.

# protocol details: Toxicity liver stage against HepG2, at 10uM
# Assay type: cell-based
# Set-up: test concentration 10 uM, cell line HepG2-A16-CD81EGFP
# run parameters: human, HepG2-A16-CD81EGFP cells; read-out: INHIBITION
readout kind: cytotoxicity at 10 µM (%)

INSERT INTO assay_data (compound, numeric_readout) VALUES
  ('COc1ccccc1OC1CN(C(=O)c2c(C)nc3ccc(C)cn23)C1', -0.376),
  ('COc1ccccc1C(=O)Nc1nc2c(s1)CN(S(=O)(=O)C1CC1)CC2', -11.7),
  ('COc1cc(C2SCC(=O)Nc3ccsc32)cc(OC)c1OC (stereo not given)', -1.88),
  ('Cc1ccc(C#N)cc1NC(=O)NC1CCCN(c2ncccn2)C1 (stereo not given)', -10.2),
  ('O=C(c1ccnc(CC2COc3ccccc3C2)c1)N1CCCC1 (stereo not given)', 1.7),
  ('CC(NC(=O)c1ccc(=O)n(C)c1)c1ccccc1-n1cccn1 (stereo not given)', 2.68),
  ('C[C@H]1CN(Cc2cccc(F)c2)C[C@@]12CCN(CC(=O)N(C)C)C2=O', -7.13),
  ('Cc1ccc(C)c(-c2[nH]c3ccccc3c2C(=O)O)c1', 1.55),
  ('CC(=O)NC1(C(=O)N(C)Cc2c(C)noc2C)CCCCC1', 14.4),
  ('CC(C)C(=O)N1CCC2(CC1)NC(=O)[C@H]1CN(C(=O)N(C)C)C[C@H]12', 3.03),
  ('CC(O)CN1CCN(Cc2cccc(C#N)c2)CC1 (stereo not given)', 9.56),
  ('NC(=O)C1CCN(C(=O)CCCc2nnc(-c3ccccc3)o2)CC1', -13.2),
  ('Cc1nc(C)n(CC2CCCN(CCOc3cccc(C#N)c3)C2)n1 (stereo not given)', -6.53),
  ('Cc1cc(-c2cnc(NC3CCCC3)nc2-c2ccoc2)on1', -20.9),
  ('CN(CCc1ccccn1)C(=O)c1ccccc1F', -10.5),
  ('CN(CCO)Cc1nnc(C2CCN(C(=O)c3cccn3C)CC2)n1C', -0.537),
  ('Cc1cn2nc(N3CCCC3C(=O)N3CCOCC3)sc2n1 (stereo not given)', -3),
  ('Cc1nn(C)cc1S(=O)(=O)NCC(c1ccccc1Cl)N1CCCC1 (stereo not given)', -1.29),
  ('Cc1csc(CCNC(=O)c2cc3c(nc2O)CCC(C)C3)n1 (stereo not given)', -3.91),
  ('O=C(NCCNc1cncc(Br)c1)c1ccc(O)cc1', 3.73),
  ('Cc1nc(C2CCN(C(=O)c3ccc(=O)n(C)c3)CC2)c2sccn12', -5.38),
  ('CCc1nc2n(n1)CCCC2Nc1nc(C(C)C)ns1 (stereo not given)', 3.88),
  ('Cc1cc(C2CCC2)nc(N(C)Cc2ncccc2C)n1', -0.392),
  ('CCc1ncc(-c2nccn2-c2cccc(CC(=O)O)c2)cn1', 10.2),
  ('CCc1ccc(CNc2cc(-c3ccoc3C)nn2CCO)o1', 0.485),
  ('Cc1cccc(CN2CC[C@H]3[C@H]2CCN3Cc2cnn(C)c2)n1', 8.67),
  ('CCN(CC1CN(Cc2nc(C3CC3)no2)CCO1)c1cccnn1 (stereo not given)', 14.9),
  ('Cc1ccc(CN2CCO[C@@H]3C[C@@H](C(=O)NC(C)C)C[C@H]32)o1', 6.1),
  ('O=C(CCc1cc2n(n1)CCCN(C(=O)c1ccccn1)C2)NC1CC1', -13.7),
  ('Cc1csc(CNC(=O)Cc2ccc3c(c2)OCCO3)n1', -1.3),
  ('CCc1nc(C2CCCN2CC(=O)Nc2cc(C)no2)no1 (stereo not given)', -1.68),
  ('COc1cccc(-n2nc(C(C)=O)c(C(C)=O)c2C)c1', 9.51),
  ('CNc1ncccc1C(=O)N1CCCC2(CCN(C)CC2)CC1', -9.17),
  ('c1cnc(-c2noc(C3CN(Cc4ccc5c(c4)CCO5)C3)n2)nc1', 0.488),
  ('CC(Nc1ccc(CN2CCCC2=O)cc1)c1ccc(C#N)cc1 (stereo not given)', 6.29),
  ('CSc1nc2cc(C)n(CC(=O)N3CCCC3)c2c(=O)n1CC(C)C', 3.64),
  ('Cc1noc(C)c1-c1cc(C2CCNCC2)ccn1', -16.6),
  ('CCc1noc(CN(CC)C(=O)CC2C(=O)NCCN2CC(C)(C)C)n1 (stereo not given)', 1.83),
  ('COCc1nc(C(=O)N2CCCC2c2ccncc2)cs1 (stereo not given)', -11.4),
  ('Cc1cnn(CC2CN(CC(=O)Nc3c(C)nn(C)c3C)CCO2)c1 (stereo not given)', 1.08);
